Below is a list of entries, each paired with its recorded MDCK-MDR1 Papp A→B (10^−6 cm/s) value.
Biological target: human MDR1 (P-glycoprotein; P-gp) (Homo sapiens (Human))
Sequence (P08183 whole entry): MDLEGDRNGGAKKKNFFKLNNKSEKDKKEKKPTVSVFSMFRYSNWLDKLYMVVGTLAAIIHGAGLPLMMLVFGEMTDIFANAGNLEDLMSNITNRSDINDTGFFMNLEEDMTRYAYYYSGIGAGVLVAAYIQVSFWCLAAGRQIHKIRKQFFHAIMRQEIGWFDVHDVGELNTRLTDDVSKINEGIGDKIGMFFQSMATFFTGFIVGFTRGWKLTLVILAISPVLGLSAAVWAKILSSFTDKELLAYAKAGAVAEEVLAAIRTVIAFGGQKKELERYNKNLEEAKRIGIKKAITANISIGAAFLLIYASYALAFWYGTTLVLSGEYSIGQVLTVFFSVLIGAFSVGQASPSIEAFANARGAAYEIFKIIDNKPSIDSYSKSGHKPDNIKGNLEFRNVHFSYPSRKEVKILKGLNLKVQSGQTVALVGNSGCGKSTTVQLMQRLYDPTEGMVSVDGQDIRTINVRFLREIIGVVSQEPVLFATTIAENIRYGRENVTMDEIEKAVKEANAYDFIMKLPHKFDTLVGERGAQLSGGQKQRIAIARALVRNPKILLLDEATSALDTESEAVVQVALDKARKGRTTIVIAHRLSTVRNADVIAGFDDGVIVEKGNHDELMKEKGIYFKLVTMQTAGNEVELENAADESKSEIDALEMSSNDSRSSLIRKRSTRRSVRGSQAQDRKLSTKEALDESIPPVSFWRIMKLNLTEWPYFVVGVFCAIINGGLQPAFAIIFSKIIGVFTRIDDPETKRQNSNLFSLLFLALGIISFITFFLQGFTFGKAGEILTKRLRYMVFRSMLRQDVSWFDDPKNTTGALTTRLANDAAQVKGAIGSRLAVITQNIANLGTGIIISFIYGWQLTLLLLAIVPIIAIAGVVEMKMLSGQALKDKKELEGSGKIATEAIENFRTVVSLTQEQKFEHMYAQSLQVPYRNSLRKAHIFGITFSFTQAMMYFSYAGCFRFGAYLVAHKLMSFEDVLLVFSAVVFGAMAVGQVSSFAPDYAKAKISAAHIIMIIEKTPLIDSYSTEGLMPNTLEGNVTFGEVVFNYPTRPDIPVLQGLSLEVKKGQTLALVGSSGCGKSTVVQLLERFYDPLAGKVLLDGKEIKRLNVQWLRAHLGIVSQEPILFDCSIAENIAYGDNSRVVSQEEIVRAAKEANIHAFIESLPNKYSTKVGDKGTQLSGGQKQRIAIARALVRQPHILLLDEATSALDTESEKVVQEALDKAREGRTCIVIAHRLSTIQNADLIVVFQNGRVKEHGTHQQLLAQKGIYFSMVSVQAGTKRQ
Test: bi-directional MDCK-MDR1 permeability assay
Assay type: in vitro ADME
Settings: apical to basolateral direction

Task item: Any idea what MDCK-MDR1 Papp A→B (10^−6 cm/s) was measured for O=c1[nH]nc2c3c(cc(F)cc13)N[C@@H](C1CCC(F)(F)CC1)[C@@H]2c1ccccc1Cl [Compound 0213B] ?
Reply: 4.93 10^−6 cm/s

Task item: Any idea what MDCK-MDR1 Papp A→B (10^−6 cm/s) was measured for CC[C@@H]1Nc2cc(F)cc3c(=O)[nH]nc(c23)[C@H]1c1ncnn1C [Compound 0202B] ?
Reply: 0.77 10^−6 cm/s

Task item: Any idea what MDCK-MDR1 Papp A→B (10^−6 cm/s) was measured for O=c1[nH]nc2c3c(cc(F)cc13)N[C@H]([C@@H]1CCOC1)[C@H]2c1ccc(F)cc1F [Compound 0115B] ?
Reply: 9.05 10^−6 cm/s

Task item: Any idea what MDCK-MDR1 Papp A→B (10^−6 cm/s) was measured for O=c1[nH]nc2c3c(cc(F)cc13)NC[C@@H]2c1ccc(Cl)cc1F [Compound 0189B] ?
Reply: 15.6 10^−6 cm/s

* * *

Read-out record for PARP1 enzyme (Homo sapiens (Human)): pIC50
Worth noting: pIC50 values are minus log10 of concentrations stated in mol/L.

# count of solved cases: 3
Compound: O=c1[nH]nc2c3c(cc(F)cc13)NCC2c1ccc(Cl)cc1F (stereo not drawn) [Compound 0189-6]
pIC50: 7.39
//
Compound: O=c1[nH]nc2c3c(cc(F)cc13)N[C@@H]([C@H]1CCOC1)[C@@H]2c1ccccc1Cl [Compound 0121C]
pIC50: 6.07
//
Compound: O=c1[nH]nc2c3c(cc(F)cc13)N[C@H](C1CCN(C3CCC(F)(F)CC3)CC1)[C@H]2c1ccccc1Cl [Compound 0261A]
pIC50: 6.05

Task item: Return pIC50 measured with PARP1 enzyme (Homo sapiens (Human)) given this compound: N#Cc1ccc([C@H]2c3n[nH]c(=O)c4cc(F)cc(c34)N[C@@H]2C2CCN(C3CCC(F)(F)CC3)CC2)c(F)c1 [Compound 0276A]
Sequence (P09874 whole entry): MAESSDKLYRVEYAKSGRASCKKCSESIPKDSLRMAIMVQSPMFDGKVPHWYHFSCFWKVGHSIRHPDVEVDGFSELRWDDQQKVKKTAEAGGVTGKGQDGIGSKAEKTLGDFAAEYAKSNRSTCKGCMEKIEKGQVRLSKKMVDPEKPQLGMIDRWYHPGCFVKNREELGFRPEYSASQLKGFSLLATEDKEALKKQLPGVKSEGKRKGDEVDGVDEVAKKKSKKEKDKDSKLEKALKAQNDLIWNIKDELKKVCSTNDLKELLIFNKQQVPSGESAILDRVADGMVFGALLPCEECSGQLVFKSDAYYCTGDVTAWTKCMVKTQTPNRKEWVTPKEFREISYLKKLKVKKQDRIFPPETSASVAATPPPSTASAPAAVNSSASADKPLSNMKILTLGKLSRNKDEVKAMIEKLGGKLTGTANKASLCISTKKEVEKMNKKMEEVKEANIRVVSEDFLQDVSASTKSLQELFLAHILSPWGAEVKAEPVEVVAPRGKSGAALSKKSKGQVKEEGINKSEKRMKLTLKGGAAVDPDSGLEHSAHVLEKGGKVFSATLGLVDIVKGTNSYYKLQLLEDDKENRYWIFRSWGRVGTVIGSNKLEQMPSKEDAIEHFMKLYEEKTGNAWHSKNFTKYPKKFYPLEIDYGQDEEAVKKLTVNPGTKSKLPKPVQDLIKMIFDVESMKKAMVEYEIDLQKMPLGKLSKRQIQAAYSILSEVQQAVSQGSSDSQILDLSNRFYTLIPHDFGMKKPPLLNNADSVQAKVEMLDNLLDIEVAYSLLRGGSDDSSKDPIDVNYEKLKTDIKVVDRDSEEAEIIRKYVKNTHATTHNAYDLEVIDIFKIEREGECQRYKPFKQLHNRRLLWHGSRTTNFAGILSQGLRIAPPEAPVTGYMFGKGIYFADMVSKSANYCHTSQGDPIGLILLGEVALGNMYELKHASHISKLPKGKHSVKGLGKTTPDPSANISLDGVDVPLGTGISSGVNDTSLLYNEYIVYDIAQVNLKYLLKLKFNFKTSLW
Reply: 6.55

Task item: Return pIC50 measured with PARP1 enzyme (Homo sapiens (Human)) given this compound: C[C@H]1Nc2cc(F)cc3c(=O)[nH]nc(c23)[C@@H]1c1ccccc1Cl [Compound 0172A]
Reply: 8.00

Task item: Return pIC50 measured with PARP1 enzyme (Homo sapiens (Human)) given this compound: CN1CCC([C@H]2Nc3cc(F)cc4c(=O)[nH]nc(c34)[C@@H]2c2ccccc2Cl)CC1 [Compound 0116A]
Reply: 5.28

Task item: Return pIC50 measured with PARP1 enzyme (Homo sapiens (Human)) given this compound: O=c1[nH]nc2c3c(cc(F)cc13)N[C@@H](C1CCN(C3CCC(F)(F)CC3)CC1)[C@@H]2c1ccc(F)cc1F [Compound 0271A]
Reply: 6.03

Task item: Return pIC50 measured with PARP1 enzyme (Homo sapiens (Human)) given this compound: N#Cc1ccc([C@@H]2CNc3cc(F)cc4c(=O)[nH]nc2c34)c(F)c1 [Compound 0187A]
Reply: 8.05

Task item: Return pIC50 measured with PARP1 enzyme (Homo sapiens (Human)) given this compound: C[C@H]1Nc2cc(F)cc3c(=O)[nH]nc(c23)[C@@H]1C1CCN(C)CC1 [Compound 0197A]
Reply: 6.35

Task item: Return pIC50 measured with PARP1 enzyme (Homo sapiens (Human)) given this compound: COCCN1CCC(C2Nc3cc(F)cc4c(=O)[nH]nc(c34)C2c2ccccc2Cl)C1 (stereo not drawn) [Compound 0117-8]
Reply: 6.25

Task item: Return pIC50 measured with PARP1 enzyme (Homo sapiens (Human)) given this compound: O=c1[nH]nc2c3c(cc(F)cc13)N[C@@H](C1CCOCC1)[C@@H]2c1ccccc1Cl [Compound 0210A]
Reply: 6.97

Task item: Return pIC50 measured with PARP1 enzyme (Homo sapiens (Human)) given this compound: N#Cc1ccc([C@H]2CNc3cc(F)cc4c(=O)[nH]nc2c34)cc1F [Compound 0186B]
Reply: 7.39

Task item: Return pIC50 measured with PARP1 enzyme (Homo sapiens (Human)) given this compound: O=c1[nH]nc2c3c(cc(F)cc13)NC(C1CCNC1)C2c1ccccc1Cl (stereo not drawn) [Compound 0171]
Reply: 7.04

Task item: Return pIC50 measured with PARP1 enzyme (Homo sapiens (Human)) given this compound: O=c1[nH]nc2c3c(cc(F)cc13)N[C@H](C1CCC(F)(F)CC1)[C@H]2c1ccccc1Cl [Compound 0213A]
Reply: 6.45

Task item: Return pIC50 measured with PARP1 enzyme (Homo sapiens (Human)) given this compound: C[C@H]1Nc2cc(F)cc3c(=O)[nH]nc(c23)[C@@H]1[C@@H]1CCCN(C)C1 [Compound 0198D]
Reply: 7.38
